Target: T1, cloned human SRIF receptor SSTR4 (human, UniProt P31391 1-388)
T1 construct: whole, on cells; assayed as cryostat sections of membrane pellets of the transfected cells; also called hSSTR4
T1 sequence (P31391 whole entry): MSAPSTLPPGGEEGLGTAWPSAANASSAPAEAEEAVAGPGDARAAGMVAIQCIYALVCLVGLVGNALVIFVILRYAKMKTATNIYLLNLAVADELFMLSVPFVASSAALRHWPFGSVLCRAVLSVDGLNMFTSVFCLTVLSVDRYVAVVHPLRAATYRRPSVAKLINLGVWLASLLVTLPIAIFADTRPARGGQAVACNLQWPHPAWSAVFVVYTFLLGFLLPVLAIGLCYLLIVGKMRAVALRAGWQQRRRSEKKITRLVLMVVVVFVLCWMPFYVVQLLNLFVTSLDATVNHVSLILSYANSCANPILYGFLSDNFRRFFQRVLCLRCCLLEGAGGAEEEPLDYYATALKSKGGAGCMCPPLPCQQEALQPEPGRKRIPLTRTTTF
Assay: radioligand displacement (125I-[Leu8,D-Trp22,Tyr25]SRIF-28), membrane pellet sections
Numbered stars: 1 amine (or outer) side, 2 acyl side, 3 side chain; on linkers, the order of the positions; unused ones are H or OH. Bridge positions count the residues as written; N and C are the ends. Square brackets hold non-standard residues; d marks the D form. Ends that are not written are not given here. * marks the point of attachment. threo‑(2S,3R)CβMe‑2Nal = threo-(2S,3R)-β-methyl-2-naphthylalanine (L-threo), C[C@H](c1ccc2ccccc2c1)[C@H](N[*:1])C(=O)[*:2]; d2Nal(3S-Me) = C[C@@H](c1ccc2ccccc2c1)[C@@H](N)C(=O)O; Phe(4-CH2NH2) = NCc1ccc(C[C@H](N)C(=O)O)cc1; Phe(4-NH2) = Nc1ccc(C[C@H](N)C(=O)O)cc1; 2Nal = N[C@@H](Cc1ccc2ccccc2c1)C(=O)O; Carbamoyl = NC(=O)*
measurement.type: IC50 (nM)

[[record]]
binder = "H-CF[Phe(4-NH2)]WKTFC-OH (disulfide 1-8, synthetic cyclic octapeptide, free N-terminus and free acid C-terminus; also called Peptide No. 1) [des-AA^1,2,4,5,12,13[4Aph^7]-SRIF, (cyclo)H-Cys-Phe-4Aph-Trp-Lys-Thr-Phe-Cys-OH]"
meas_value = 1.2

[[record]]
binder = "CFA[dW]KTAC-OH (disulfide 1-8, synthetic cyclic octapeptide; also called Peptide No. 12B) [(cyclo)Cys-Phe-Ala-D-Trp-Lys-Thr-Ala-Cys-OH]"
meas_value = 9.5

[[record]]
binder = "H-CFY[threo‑(2S,3R)CβMe‑2Nal]KTFC-OH (disulfide 1-8; SMILES C[C@H](c1ccc2ccccc2c1)[C@@H]1NC(=O)[C@H](Cc2ccc(O)cc2)NC(=O)[C@H](Cc2ccccc2)NC(=O)[C@@H](N)CSSC[C@@H](C(=O)O)NC(=O)[C@H](Cc2ccccc2)NC(=O)[C@H]([C@@H](C)O)NC(=O)[C@H](CCCCN)NC1=O, later-eluting isomer, determined to incorporate the L-threo-β-Me-2Nal residue; also called Peptide No. 17A; 17a) [(cyclo)H-Cys-Phe-Tyr-threo-(2S,3R)C^βMe-2Nal-Lys-Thr-Phe-Cys-OH]"
meas_value = 2.8

[[record]]
binder = "H-YCF[Phe(4-CH2NH2)]WKTFC-OH (disulfide 2-9, here position 7 is 4Amp; also called Peptide 15; Peptide No. 15) [(cyclo)H-Tyr-Cys-Phe-4 Amp-Trp-Lys-Thr-Phe-Cys-OH]"
meas_value = 2.4

[[record]]
binder = "H-YCFAWKTFC-OH (disulfide 2-9, synthetic cyclic nonapeptide; also called Peptide No. 13) [(cyclo)H-Tyr-Cys-Phe-Ala-Trp-Lys-Thr-Phe-Cys-OH]"
meas_value = 1.98

[[record]]
binder = "Carbamoyl-YCFAWKTFC-OH (disulfide 2-9, synthetic cyclic nonapeptide; also called Peptide No. 13B) [(cyclo)Cbm-Tyr-Cys-Phe-Ala-Trp-Lys-Thr-Phe-Cys-OH]"
meas_value = 2.36

[[record]]
binder = "H-CFY[d2Nal(3S-Me)]KTFC-OH (disulfide 1-8; SMILES C[C@@H](O)[C@@H]1NC(=O)[C@H](CCCCN)NC(=O)[C@@H]([C@@H](C)c2ccc3ccccc3c2)NC(=O)[C@H](Cc2ccc(O)cc2)NC(=O)[C@H](Cc2ccccc2)NC(=O)[C@@H](N)CSSC[C@@H](C(=O)O)NC(=O)[C@H](Cc2ccccc2)NC1=O, also called Peptide No. 17) [(cyclo)H-Cys-Phe-Tyr-threo-(2R,3S)C^βMe-2Nal-Lys-Thr-Phe-Cys-OH]"
meas_value = 2.3

[[record]]
binder = "H-CF[Phe(4-NH2)][2Nal]KTFC-OH (disulfide 1-8; SMILES C[C@@H](O)[C@@H]1NC(=O)[C@H](CCCCN)NC(=O)[C@H](Cc2ccc3ccccc3c2)NC(=O)[C@H](Cc2ccc(N)cc2)NC(=O)[C@H](Cc2ccccc2)NC(=O)[C@@H](N)CSSC[C@@H](C(=O)O)NC(=O)[C@H](Cc2ccccc2)NC1=O, synthetic cyclic octapeptide; also called Peptide 5; Peptide No. 5) [(cyclo)H-Cys-Phe-4Aph-2Nal-Lys-Thr-Phe-Cys-OH]"
meas_value = 2.9

[[record]]
binder = "H-YCF[Phe(4-NH2)][dW]KTFC-OH (disulfide 2-9, synthetic cyclic nonapeptide; also called Peptide No. 7) [(cyclo)H-Tyr-Cys-Phe-4Aph-D-Trp-Lys-Thr-Phe-Cys-OH]"
meas_value = 1.2

